- test_details: Measurement of concentration of compound in rat plasma
- Format: in vivo
- assay_context: oral 10 mg/kg, after 1 hour
Counter-ions that a name gives are not always drawn.
measured_attribute: concentration at 1 h

GET /values?readout=concentration at 1 h&item= CO[C@H]1Cc2ccccc2[C@H]1NC(=O)/C=C/c1c(-c2ccccc2)n(C)c2ncccc12 [Example 4, hydrochloride]
490 to 590 ng/mL

Next record, please: Cc1ccc2c(c1)c(C(=O)N1CCN(c3ccccn3)CC1)c(-c1ccccc1)n2C [Compound A, hydrochloride, reference compound]
55 to 120 ng/mL

Item: Cc1ccc2c(c1)c(C(=O)N1CCN(c3ccc(-c4nnn(CCO)n4)cn3)CC1)c(-c1ccccc1)n2C.Cl [Example 9, hydrochloride]
720 to 2200 ng/mL

Item: Cc1ncsc1CCNC(=O)c1cnc(N2CCN(C(=O)c3c(-c4ccccc4)n(C)c4ncccc34)CC2)cn1 [Example 27, dihydrochloride]
1500 to 1900 ng/mL

Continue with COc1cc2c(cc1OC)C(C)N(C(=O)/C=C/c1c(-c3ccccc3)n(C)c3ncccc13)CC2 (centres unmarked) [Example 3, hydrochloride]
370 to 640 ng/mL

// next record CC1c2cc3c(cc2CCN1C(=O)/C=C/c1c(-c2ccccc2)n(C)c2ncccc12)OCO3 (centres unmarked) [Example 28, hydrochloride]
400 to 550 ng/mL

How about Cn1c(-c2ccccc2)c(/C=C/C(=O)N2CCC(n3c(=O)[nH]c4ccccc43)CC2)c2cccnc21 [Example 29, hydrochloride] ?
280 to 1100 ng/mL

Entry to check: Cc1ccc2c(c1)c(C(=O)N1CCN(c3cnc(C(=O)NCCc4scnc4C)cn3)CC1)c(-c1ccccc1)n2C [Example 5, trihydrochloride]
520 to 720 ng/mL

Same thing, different compound: CC(=O)Nc1cnc(N2CCN(C(=O)c3c(-c4ccccc4)n(C)c4ccc(C)cc34)CC2)cn1 [Example 121]
2100 to 5800 ng/mL

Repeat for the following compound: Cc1ccc2c(c1)c(C(=O)N1CCN(c3ccc(-c4nnn(C)n4)cn3)CC1)c(-c1ccccc1)n2C [Example 26]
130 to 300 ng/mL

Same again, this time with Cc1ccc2c(c1)c(C(=O)N1CCN(c3cnc(C(=O)NCCCn4ccnc4)cn3)CC1)c(-c1ccccc1)n2C [Example 31]
320 to 640 ng/mL

What about Cc1ccc2c(c1)c(C(=O)N1CCN(c3ccc(C(=O)NCCO)cn3)CC1)c(-c1ccccc1)n2C [Example 1] ?
1300 to 7300 ng/mL

And Cc1ccc2c(c1)c(C(=O)N1CCN(c3ccc(C(=O)N(C)C)cn3)CC1)c(-c1ccccc1)n2C.Cl [Example 120, hydrochloride] ?
3200 to 5700 ng/mL

Try this compound next: Cn1c(-c2ccccc2)c(/C=C/C(=O)N2CCc3ccccc3C2)c2cccnc21 [Example 104, hydrochloride]
44 to 71 ng/mL

* * *

- Tested on: collagen production induced by TGF-β (NHDF cells)
- test_details: Inhibitory effect on collagen production induced by TGF-β, [3H] proline uptake (NHDF cells)
- Format: cell-based, human
- assay_context: Homo sapiens, NHDF, 1 μM, TGF-β1 3 ng/ml
Where a name gives a salt, the structure may show the parent alone.
measured_attribute: inhibition at 1 µM (%)
Expressed in %, but write only the number.

If you can, please state the reported inhibition at 1 µM value of CCOC(=O)C1CCCC1NC(=O)c1cnc(N2CCN(C(=O)c3c(-c4ccccc4)n(C)c4ccc(C)cc34)CC2)cn1 (stereo not drawn) .
75

Try the molecule CC1c2cc3c(cc2CCN1C(=O)/C=C/c1c(-c2ccccc2)n(C)c2ncccc12)OCO3 (stereo not drawn) [Example 28, hydrochloride]
31

Entry to check: Cc1ncsc1CCNC(=O)c1cnc(N2CCN(C(=O)c3c(-c4ccccc4)n(C)c4ncccc34)CC2)cn1 [Example 27, dihydrochloride]
25

* * *

- Test system: collagen production induced by TGF-β (NHDF cells)
- test_details: Inhibitory effect on collagen production induced by TGF-β, [3H] proline uptake (NHDF cells)
- Assay type: cell-based, human
- assay_context: Homo sapiens, NHDF, 1 μM, TGF-β1 3 ng/ml
- Method: As an index of collagen production, the uptake of [^3H] proline was measured. Using a 96-well microplate, normal human skin derived fibroblast (NHDF, 10^4/well) or human embryonic lung fibroblast (TIG-3, 10^4/well) were cultured in a 10% fetal calf serum (FCS)-containing Dulbecco's modified Eagle medium (DMEM) for one day. […]
Where a name gives a salt, the structure may show the parent alone.
measured_attribute: inhibition at 1 µM (%)
State the answer as a number, implicitly in %.

GET /values?readout=inhibition at 1 µM&item= COc1ccc(-c2c(/C=C/C(=O)N3CCc4cc(OC)c(OC)cc4C3)c3cccnc3n2C)cc1OC [Example 131, hydrochloride]
96

Request: Cc1ccc2c(c1)c(C(=O)N1CCN(c3ccccn3)CC1)c(-c1ccccc1)n2C [Compound A, hydrochloride, reference compound]
8

Same again, this time with COC(=O)c1ccc(-c2c(/C=C/C(=O)N3CCc4cc(OC)c(OC)cc4C3)c3cc(C)ccc3n2C)cc1
65

Consider next the compound Cc1ccc2c(c1)c(C(=O)N1CCN(c3cnc(C(=O)NCCc4scnc4C)cn3)CC1)c(-c1ccccc1)n2C [Example 5, trihydrochloride] in the same way.
40

Repeat with Cn1c(-c2ccccc2)c(/C=C/C(=O)N[C@@H]2c3ccccc3C[C@@H]2O)c2cc3c(cc21)OCO3
37

Then what about the compound Cn1c(-c2ccccc2)c(/C=C/C(=O)NCC2CN(Cc3ccc(F)cc3)CCO2)c2ccccc21 (stereo not shown) [Example 30, hydrochloride] ?
41

And what about the compound CO[C@H]1Cc2ccccc2[C@H]1NC(=O)/C=C/c1c(-c2ccccc2)n(C)c2ncccc12 [Example 4, hydrochloride] ?
41

* * *

Provide the reported inhibition at 1 µM of each item.
- Test system: collagen production induced by TGF-β (NHDF cells)
- test_details: Inhibitory effect on collagen production induced by TGF-β, [3H] proline uptake (NHDF cells)
- Assay type: cell-based, human
- assay_context: Homo sapiens, NHDF, 1 μM, TGF-β1 3 ng/ml
Where a name gives a salt, the structure may show the parent alone.
Remember to follow the number with its unit.

What does the data say about its inhibition at 1 µM? Entry: Cn1c(-c2ccccc2)c(/C=C/C(=O)N(CCc2cccs2)CC(=O)O)c2cccnc21
38%

Check CCOC(=O)C1CCCC1NC(=O)/C=C/c1c(-c2ccccc2)n(C)c2ncccc12 (stereo not shown) too.
29%

Item: CN1CCC(N(C)C(=O)/C=C/c2c(-c3ccccc3)n(C)c3ncccc23)CC1
20%

Note, next up: Cc1ccc2c(c1)c(C(=O)N1CCN(c3cnc(C(=O)NCCc4ccc(O)cc4)cn3)CC1)c(-c1ccccc1)n2C [Example 145, hydrochloride]
55%

Same lookup for COc1cc2c(cc1OC)C(C)N(C(=O)/C=C/c1c(-c3ccccc3)n(C)c3ncccc13)CC2 (stereo not shown) [Example 3, hydrochloride] , please.
65%

Proceed to Cc1cnc2c(c1)c(C(=O)N1CCN(c3cnc(C(=O)NCCc4scnc4C)cn3)CC1)c(-c1ccccc1)n2C [Example 148, trihydrochloride]
29%

Request: COc1cc2c(cc1OC)CN(C(=O)/C=C/c1c(-c3ccccc3)n(C)c3ncccc13)CC2 [Example 109, hydrochloride]
50%

* * *

- Test system: collagen production induced by TGF-β (NHDF cells)
- test_details: Inhibitory effect on collagen production induced by TGF-β, [3H] proline uptake (NHDF cells)
- Format: cell-based, human
- assay_context: Homo sapiens, NHDF, 3 μM, TGF-β1 3 ng/ml
Structures can show the parent of a compound that is named as a salt.
measured_attribute: inhibition at 3 µM (%)
// return numeric value only (unit: %, not printed)

Given the molecule COc1cc2c(cc1OC)CN(C(=O)/C=C/c1c(-c3ccccc3)n(C)c3cnccc13)CC2 [Example 130, hydrochloride] , what is its reported inhibition at 3 µM?
157

Ok, now COc1cc2c(cc1OC)CN(C(=O)/C=C/c1c(-c3ccccc3)[nH]c3ncccc13)CC2 [Example 138, dihydrochloride]
53

Can you check CN(CCC(O)c1ccccc1)C(=O)/C=C/c1c(-c2ccc3c(c2)OCO3)n(C)c2ccccc12 (stereo not shown) [Example 112] next?
73

How about CN1CCC(N(C)C(=O)/C=C/c2c(-c3ccccc3)n(C)c3ncccc23)CC1 [Example 122] ?
57

// repeat for CCOC(=O)C1CCCC1NC(=O)c1cnc(N2CCN(C(=O)c3c(-c4ccccc4)n(C)c4ccc(C)cc34)CC2)cn1 (stereo not shown) [Example 129] and report
73

And the next one, CC(=O)C1(c2ccccc2)CCN(C(=O)C=Cc2c(-c3ccc(C(=O)O)cc3)n(C)c3ccc(C)cc23)CC1 [Example 146] ?
60

Follow-up entry: Cc1ccc2c(c1)c(C(=O)N1CCN(c3cnc(C(=O)NCCc4scnc4C)cn3)CC1)c(-c1ccccc1)n2C [Example 5, trihydrochloride]
43
